# kon annotations
Target: T1, human interleukin-23 receptor (IL23R) (human, UniProt Q5VWK5 24-355, limits assumed)
T1 construct: also called human IL23R
T1 sequence (looked up): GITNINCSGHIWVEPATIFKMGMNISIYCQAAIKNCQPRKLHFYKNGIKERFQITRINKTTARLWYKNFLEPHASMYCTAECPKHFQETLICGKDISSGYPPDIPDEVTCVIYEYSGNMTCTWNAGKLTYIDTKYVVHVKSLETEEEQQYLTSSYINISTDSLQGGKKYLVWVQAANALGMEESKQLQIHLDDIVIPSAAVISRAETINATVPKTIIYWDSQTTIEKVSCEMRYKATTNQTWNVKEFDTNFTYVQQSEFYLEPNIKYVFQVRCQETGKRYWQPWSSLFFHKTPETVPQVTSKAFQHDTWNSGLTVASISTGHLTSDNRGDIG
Assay: SPR, scFv

# binder, kon / M⁻¹ s⁻¹
data = [
    ("Vκ3/VH1A consensus λ-capped, human IL23R specific scFv (scFv, scFv VL-linker-VH, made in E. coli; also called Vκ3VH1A capped) scFv: DIVLTQSPATLSLSPGERATLSCQASENIYSFLAWYQQKPGQAPRLLIYSASKLAAGVPARFSGSGSGTDFTLTISSLEPEDFAVYYCQQTNRYSNPDIYNVFGGGTKLTVLGGGGGSGGGGSGGGGSGGGGSQVQLVQSGAEVKKPGSSVKVSCKASGIDFNSNYYMCWVRQAPGQGLEWMGCIYVGSHVNTYYANWAKGRVTITADESTSTAYMELSSLRSEDTAVYYCATSGSSVLYFKFWGQGTLVTVSS", "2e+06"),
    ("Vκ3/VH4 consensus (uncapped), human IL23R specific scFv (scFv, scFv VL-linker-VH, made in E. coli; Vκ framework IV (uncapped, full consensus); also called Vκ3VH4 uncapped) scFv: DIVLTQSPATLSLSPGERATLSCQASENIYSFLAWYQQKPGQAPRLLIYSASKLAAGVPARFSGSGSGTDFTLTISSLEPEDFAVYYCQQTNRYSNPDIYNVFGQGTKVEIKRGGGGSGGGGSGGGGSGGGGSQVQLQESGPGLVKPSETLSLTCTVSGIDFNSNYYMCWIRQPPGKGLEWIGCIYVGSHVNTYYANWAKGRVTISVDTSKNQFSLKLSSVTAADTAVYYCATSGSSVLYFKFWGQGTLVTVSS", "1.89e+06"),
    ("Vκ3/VH2 consensus (uncapped), human IL23R specific scFv (scFv, scFv VL-linker-VH, made in E. coli; Vκ framework IV (uncapped, full consensus); also called Vκ3VH2 uncapped) scFv: DIVLTQSPATLSLSPGERATLSCQASENIYSFLAWYQQKPGQAPRLLIYSASKLAAGVPARFSGSGSGTDFTLTISSLEPEDFAVYYCQQTNRYSNPDIYNVFGQGTKVEIKRGGGGSGGGGSGGGGSGGGGSQVQLKESGPALVKPTQTLTLTCTFSGIDFNSNYYMCWIRQPPGKALEWLACIYVGSHVNTYYANWAKGRLTISKDTSKNQVVLTMTNMDPVDTATYYCATSGSSVLYFKFWGQGTLVTVSS", 786000),
    ("Vκ3/VH3 consensus (uncapped), human IL23R specific scFv (scFv, scFv VL-linker-VH, made in E. coli; Vκ framework IV (uncapped, full consensus); also called Vκ3VH3 uncapped) scFv: DIVLTQSPATLSLSPGERATLSCQASENIYSFLAWYQQKPGQAPRLLIYSASKLAAGVPARFSGSGSGTDFTLTISSLEPEDFAVYYCQQTNRYSNPDIYNVFGQGTKVEIKRGGGGSGGGGSGGGGSGGGGSEVQLVESGGGLVQPGGSLRLSCAASGIDFNSNYYMCWVRQAPGKGLEWVSCIYVGSHVNTYYANWAKGRFTISRDNSKNTLYLQMNSLRAEDTAVYYCATSGSSVLYFKFWGQGTLVTVSS", "1.65e+06"),
]
